molecular target: UniProt:Q01726; test: Displacement of [125I]NDP-alphaMSH from human MC1 receptor expressed in HEK293 cells relative to MT2; format: cell-based
Sequence (Q01726 whole entry, looked up): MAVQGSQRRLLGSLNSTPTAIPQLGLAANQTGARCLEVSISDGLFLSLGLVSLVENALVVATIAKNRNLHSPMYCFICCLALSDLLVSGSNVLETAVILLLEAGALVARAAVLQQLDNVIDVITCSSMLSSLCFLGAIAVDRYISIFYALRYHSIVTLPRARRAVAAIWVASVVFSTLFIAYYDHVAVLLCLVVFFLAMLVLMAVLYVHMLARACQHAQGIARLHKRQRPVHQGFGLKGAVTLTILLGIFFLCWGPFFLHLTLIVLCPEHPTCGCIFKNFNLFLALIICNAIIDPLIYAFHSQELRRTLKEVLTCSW
readout label: Activity

# molecule, Activity
measured = [
    ("CC(=O)N[C@H]1CSSC[C@@H](C(=O)N(CCCCN=C(N)N)[C@H](Cc2c[nH]c3ccccc23)C(N)=O)NC(=O)[C@@H](Cc2ccccc2)NC(=O)[C@H](Cc2c[nH]cn2)NC1=O", "0%"),
    ("CC(=O)N[C@H]1CSSC[C@@H](C(=O)N(CCCCN=C(N)N)[C@@H](Cc2c[nH]c3ccccc23)C(N)=O)NC(=O)[C@@H](Cc2ccccc2)NC(=O)[C@H](Cc2c[nH]cn2)NC1=O", "< 10%"),
    ("CC(=O)N[C@H]1CCC(=O)NCCC[C@@H](C(=O)N[C@@H](Cc2c[nH]c3ccccc23)C(N)=O)N(CCCCN=C(N)N)C(=O)[C@@H](Cc2ccc3ccccc3c2)NC(=O)[C@H](Cc2c[nH]cn2)NC1=O", "< 10%"),
    ("CC(=O)N[C@H]1CSSC[C@@H](C(=O)N(CCCCN=C(N)N)C(Cc2c[nH]c3ccccc23)C(N)=O)NC(=O)[C@@H](Cc2ccc3ccccc3c2)NC(=O)[C@H](Cc2c[nH]cn2)NC1=O (stereo in doubt)", "< 10%"),
    ("CC(=O)N[C@H]1CCC(=O)NCCC[C@@H](C(=O)N[C@@H](Cc2c[nH]c3ccccc23)C(N)=O)N(CCCCN=C(N)N)C(=O)[C@@H](Cc2ccccc2)NC(=O)[C@H](Cc2c[nH]cn2)NC1=O", "< 10%"),
]

// query Print UniProt:Q01726 Activity for CC(=O)N[C@H]1CSSC[C@@H](C(=O)N[C@@H](Cc2c[nH]c3ccccc23)C(N)=O)N(CCCCN=C(N)N)C(=O)[C@@H](Cc2ccccc2)NC(=O)[C@H](Cc2c[nH]cn2)NC1=O .
// result 0%

// query Lab note: record Activity of CC(=O)N[C@H]1CCC(=O)NCCC(C(=O)N[C@@H](Cc2c[nH]c3ccccc23)C(N)=O)N(CCCCN=C(N)N)C(=O)[C@@H](Cc2ccccc2)NC(=O)[C@H](Cc2c[nH]cn2)NC1=O (stereo partly drawn) tested on UniProt:Q01726.
// result < 10%

// query Give UniProt:Q01726 Activity for the following molecule: CC(=O)N[C@H]1CSSC[C@H](C(=O)N[C@@H](Cc2c[nH]c3ccccc23)C(N)=O)N(CCCCN=C(N)N)C(=O)[C@@H](Cc2ccccc2)NC(=O)[C@H](Cc2c[nH]cn2)NC1=O
// result < 10%
